Test: qHTS assay for cell viability of HEK293 cells (AID 743288); note: % is set by controls: 0 for no effect and ±100 for the full control effect
Details: ATP luminescence (CellTiter-Glo), 18 h; stronger effect = lower value
Results filed as inconclusive are left out.
Quick reference for max response among some compounds
Reply with just the number (in %).

Reference set, count: 4
[[record]]
compound = "CCSCc1ccccc1OC(=O)NC"
readout = "max response"
reported_measurement = -9.67

[[record]]
compound = "COc1cccc(C(=O)NN(C(=O)c2cc(C)cc(C)c2)C(C)(C)C)c1C"
readout = "max response"
reported_measurement = -4.45

[[record]]
compound = "CC/C(=N\\OC/C=C/Cl)C1=C(O)CC(C2CCOCC2)CC1=O (stereo unspecified)"
readout = "max response"
reported_measurement = 3.9

[[record]]
compound = "O=[N+]([O-])c1ccc(Oc2ccc(C(F)(F)F)cc2[N+](=O)[O-])cc1"
readout = "max response"
reported_measurement = -11.9


Returns the measured max response for the input compound. Input: COc1cc(Cl)c(OC)cc1Cl
-14.2

CC(C)=CC1[C@H](C(=O)OCc2cccc(Oc3ccccc3)c2)C1(C)C (stereo partly specified) ?
-10.6
